Consider the following molecules and their measured IC50 readings.
# targetUnderTest: human V1a receptor (Homo sapiens, UniProt P37288)
# Sequence (P37288 whole entry): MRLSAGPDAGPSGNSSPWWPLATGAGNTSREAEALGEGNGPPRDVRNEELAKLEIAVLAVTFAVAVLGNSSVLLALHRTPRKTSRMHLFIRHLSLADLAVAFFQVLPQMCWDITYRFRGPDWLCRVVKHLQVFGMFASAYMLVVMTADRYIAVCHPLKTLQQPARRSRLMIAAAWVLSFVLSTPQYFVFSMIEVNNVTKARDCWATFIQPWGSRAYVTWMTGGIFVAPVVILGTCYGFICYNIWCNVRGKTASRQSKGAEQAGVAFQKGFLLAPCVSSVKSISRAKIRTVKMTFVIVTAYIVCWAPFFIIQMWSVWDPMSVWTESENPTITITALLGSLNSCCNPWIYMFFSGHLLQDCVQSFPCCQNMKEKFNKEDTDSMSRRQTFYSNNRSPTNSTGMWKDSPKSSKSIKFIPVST
# experimentNotes: Cellular in vitro assay for vasopressin receptor activity, V1a cell line (aequorin luminescence)
# assayConditions: CHO cell line transfected with human V1a receptor; agonist [Arg8]-vasopressin at EC50 concentration; read-out: IC50hV1a
endpointLabel: IC50

{"molecule": "CC(F)c1nc(Cn2nc(-c3ccc(Cl)cc3)n(C[C@H](O)C(F)(F)F)c2=O)nn1-c1ccccc1OC(F)F (mixture of isomers) [Example 31]", "targetUnderTest": "human V1a receptor (Homo sapiens, UniProt P37288)", "endpointLabel": "IC50", "result": "1.75 nM"}
{"molecule": "CCc1ccccc1-n1nc(Cn2nc(-c3ccc(Cl)cc3)n(C[C@H](O)C(F)(F)F)c2=O)nc1C(C)(F)F [Example 62]", "targetUnderTest": "human V1a receptor (Homo sapiens, UniProt P37288)", "endpointLabel": "IC50", "result": "2.2 nM"}
{"molecule": "CC(F)(F)c1nc(Cn2nc(-c3ccc(Cl)cc3)n(C[C@H](O)C(F)(F)F)c2=O)nn1-c1ccccc1[N+](=O)[O-] [Example 65]", "targetUnderTest": "human V1a receptor (Homo sapiens, UniProt P37288)", "endpointLabel": "IC50", "result": "3.05 nM"}
{"molecule": "CC(F)(F)c1nc(Cn2nc(-c3ccc(Cl)cc3)n(C[C@H](O)C(F)(F)F)c2=O)nn1-c1ccccc1OC(F)F [Example 63]", "targetUnderTest": "human V1a receptor (Homo sapiens, UniProt P37288)", "endpointLabel": "IC50", "result": "2.1 nM"}
{"molecule": "CC(F)(F)c1nc(Cn2nc(-c3ccc(Cl)cc3)n(C[C@H](O)C(F)(F)F)c2=O)nn1-c1ncccc1C(F)(F)F [Example 59]", "targetUnderTest": "human V1a receptor (Homo sapiens, UniProt P37288)", "endpointLabel": "IC50", "result": "4.7 nM"}
{"molecule": "CC(F)c1nc(Cn2nc(-c3ccc(Cl)cc3)n(C[C@H](O)C(F)(F)F)c2=O)nn1-c1cnccc1Cl (mixture of isomers) [Example 4]", "targetUnderTest": "human V1a receptor (Homo sapiens, UniProt P37288)", "endpointLabel": "IC50", "result": "2.05 nM"}
{"molecule": "CC(F)c1nc(Cn2nc(-c3ccc(Cl)cc3)n(C[C@H](O)C(F)(F)F)c2=O)nn1-c1ncccc1C(F)(F)F (single isomer, unassigned) [Example 11]", "targetUnderTest": "human V1a receptor (Homo sapiens, UniProt P37288)", "endpointLabel": "IC50", "result": "13.5 nM"}
{"molecule": "CC(F)c1nc(Cn2nc(-c3ccc(Cl)cc3)n(C[C@H](O)C(F)(F)F)c2=O)nn1-c1cccc(Cl)c1 (mixture of isomers) [Example 16]", "targetUnderTest": "human V1a receptor (Homo sapiens, UniProt P37288)", "endpointLabel": "IC50", "result": "16 nM"}
{"molecule": "CC(F)c1nc(Cn2nc(-c3ccc(Cl)cc3)n(C[C@H](O)C(F)(F)F)c2=O)nn1-c1ccccc1C#N (single isomer, unassigned) [Example 40]", "targetUnderTest": "human V1a receptor (Homo sapiens, UniProt P37288)", "endpointLabel": "IC50", "result": "28.5 nM"}
{"molecule": "Cc1ccccc1-n1nc(Cn2nc(-c3ccc(Cl)cc3)n(C[C@H](O)C(F)(F)F)c2=O)nc1C(C)F (single isomer, unassigned) [Example 35]", "targetUnderTest": "human V1a receptor (Homo sapiens, UniProt P37288)", "endpointLabel": "IC50", "result": "0.36 nM"}
{"molecule": "CC(F)c1nc(Cn2nc(-c3ccc(Cl)cc3)n(C[C@H](O)C(F)(F)F)c2=O)nn1-c1ccccc1Cl (mixture of isomers) [Example 1]", "targetUnderTest": "human V1a receptor (Homo sapiens, UniProt P37288)", "endpointLabel": "IC50", "result": "0.35 nM"}
{"molecule": "CCc1cccc(C)c1-n1nc(Cn2nc(-c3ccc(Cl)cc3)n(C[C@H](O)C(F)(F)F)c2=O)nc1C(C)F (mixture of isomers) [Example 48]", "targetUnderTest": "human V1a receptor (Homo sapiens, UniProt P37288)", "endpointLabel": "IC50", "result": "30.5 nM"}

src = patent US10525041B2
